# EXPERIMENTAL TARGET: eIF4E (Mus musculus, UniProt P63073)
# Construct: Murine eIF4E (residues 28–217) was expressed in E. coli; made in house; host or cells: E. coli
# Sequence (P63073 28-217): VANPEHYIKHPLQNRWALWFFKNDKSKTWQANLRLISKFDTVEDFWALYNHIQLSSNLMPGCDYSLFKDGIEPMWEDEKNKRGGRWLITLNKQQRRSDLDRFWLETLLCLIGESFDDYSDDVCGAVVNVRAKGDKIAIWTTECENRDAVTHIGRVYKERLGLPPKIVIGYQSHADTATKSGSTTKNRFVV
# PROTOCOL TEXT: FA competition (probe-displacement) assay for eIF4E
# Format: binding, Murine
# EXPERIMENTAL SETUP: Probe 1e: footnote c, 1 nM probe 1c and 100 nM eIF4E
PARAMETER: Hill slope

CO[C@@H]1[C@H](O)[C@@H](COP([O-])(=S)OP(=O)(O)OP(=O)(O)OP(=O)(O)OC[C@H]2O[C@@H](n3cnc4c(=O)[nH]c(N)nc43)[C@H](O)[C@@H]2O)O[C@H]1n1c[n+](C)c2c(=O)[nH]c(N)nc21 (single isomer, unassigned) [m^7′-OGpSpppG D2, m^7,2′-OGpSpppG D2]; 1.40
C[n+]1cn([C@@H]2O[C@H](COP(=O)([O-])OP(O)(=S)OP(=O)(O)OC[C@H]3O[C@@H](n4cnc5c(=O)[nH]c(N)nc54)[C@H](O)[C@@H]3O)[C@@H](O)[C@H]2O)c2nc(N)[nH]c(=O)c21 (single isomer, unassigned) [m^7GppSpG D2]; 1.04
Cn1c[n+]([C@@H]2O[C@H](COP(=O)(O)OP(=O)([O-])O)[C@@H](O)[C@H]2O)c2nc(N)[nH]c(=O)c21; 1.08
C[n+]1cn([C@@H]2O[C@H](COP(=O)([O-])OP(O)(=S)OP(=O)(O)OC[C@H]3O[C@@H](n4cnc5c(=O)[nH]c(N)nc54)[C@H](O)[C@@H]3O)[C@@H](O)[C@H]2O)c2nc(N)[nH]c(=O)c21 (single isomer, unassigned) [m^7GppSpG D1]; 1.10
CO[C@@H]1[C@H](O)[C@@H](COP([O-])(=S)OP(=O)(O)OP(=O)(O)OP(=O)(O)OC[C@H]2O[C@@H](n3cnc4c(=O)[nH]c(N)nc43)[C@H](O)[C@@H]2O)O[C@H]1n1c[n+](C)c2c(=O)[nH]c(N)nc21 (single isomer, unassigned) [m^7′-OGpSpppG D1, m^7,2′-OGpSpppG D1]; 1.46
Cn1c[n+]([C@@H]2O[C@H](COP(=O)(O)OP(=O)([O-])OP(=O)(O)OC[C@H]3O[C@@H](n4cnc5c(=O)[nH]c(N)nc54)[C@H](O)[C@@H]3O)[C@@H](O)[C@H]2O)c2nc(N)[nH]c(=O)c21; 1.08

====

# EXPERIMENTAL TARGET: eIF4E (Mus musculus, UniProt P63073)
# Construct: Murine eIF4E (residues 28–217) was expressed in E. coli; made in house; host or cells: E. coli
# PROTOCOL TEXT: FA competition (probe-displacement) assay for eIF4E
# Assay type: binding, Murine
# EXPERIMENTAL SETUP: Probe 1b: 1 nM probe 1b and 15 nM eIF4E; HEPES pH 7.2
PARAMETER: EC50 (nM)

Consider the following illustrative entries.
Cn1c[n+]([C@@H]2O[C@H](COP(=O)(O)OP(=O)([O-])O)[C@@H](O)[C@H]2O)c2nc(N)[nH]c(=O)c21; 212
CO[C@@H]1[C@H](O)[C@@H](COP([O-])(=S)OP(=O)(O)OP(=O)(O)OP(=O)(O)OC[C@H]2O[C@@H](n3cnc4c(=O)[nH]c(N)nc43)[C@H](O)[C@@H]2O)O[C@H]1n1c[n+](C)c2c(=O)[nH]c(N)nc21 (single isomer, unassigned) [m^7′-OGpSpppG D2, m^7,2′-OGpSpppG D2]; 34.9
Cn1c[n+]([C@@H]2O[C@H](COP(=O)(O)OP(=O)([O-])OP(=O)(O)OC[C@H]3O[C@@H](n4cnc5c(=O)[nH]c(N)nc54)[C@H](O)[C@@H]3O)[C@@H](O)[C@H]2O)c2nc(N)[nH]c(=O)c21; 599

I. C[n+]1cn([C@@H]2O[C@H](COP(=O)([O-])OP(O)(=S)OP(=O)(O)OC[C@H]3O[C@@H](n4cnc5c(=O)[nH]c(N)nc54)[C@H](O)[C@@H]3O)[C@@H](O)[C@H]2O)c2nc(N)[nH]c(=O)c21 (single isomer, unassigned) [m^7GppSpG D2]
II. C[n+]1cn([C@@H]2O[C@H](COP(=O)([O-])OP(O)(=S)OP(=O)(O)OC[C@H]3O[C@@H](n4cnc5c(=O)[nH]c(N)nc54)[C@H](O)[C@@H]3O)[C@@H](O)[C@H]2O)c2nc(N)[nH]c(=O)c21 (single isomer, unassigned) [m^7GppSpG D1]
Challenge: // which entry has the larger EC50 value, I or II ? Field: selected label. Fill in the label of the entry you choose.
Response given: I

====

# EXPERIMENTAL TARGET: eIF4E (Mus musculus)
# Construct: Murine eIF4E (residues 28–217) was expressed in E. coli; made in house; host or cells: E. coli
# PROTOCOL TEXT: FA competition (probe-displacement) assay for eIF4E
# Format: binding, Murine
# EXPERIMENTAL SETUP: Probe 1b: 1 nM probe 1b and 15 nM eIF4E
PARAMETER: Hill slope

CO[C@@H]1[C@H](O)[C@@H](COP([O-])(=S)OP(=O)(O)OP(=O)(O)OP(=O)(O)OC[C@H]2O[C@@H](n3cnc4c(=O)[nH]c(N)nc43)[C@H](O)[C@@H]2O)O[C@H]1n1c[n+](C)c2c(=O)[nH]c(N)nc21 (single isomer, unassigned) [m^7′-OGpSpppG D2, m^7,2′-OGpSpppG D2]; 1.37
C[n+]1cn([C@@H]2O[C@H](COP(=O)([O-])OP(O)(=S)OP(=O)(O)OC[C@H]3O[C@@H](n4cnc5c(=O)[nH]c(N)nc54)[C@H](O)[C@@H]3O)[C@@H](O)[C@H]2O)c2nc(N)[nH]c(=O)c21 (single isomer, unassigned) [m^7GppSpG D1]; 1.16
CO[C@@H]1[C@H](O)[C@@H](COP([O-])(=S)OP(=O)(O)OP(=O)(O)OP(=O)(O)OC[C@H]2O[C@@H](n3cnc4c(=O)[nH]c(N)nc43)[C@H](O)[C@@H]2O)O[C@H]1n1c[n+](C)c2c(=O)[nH]c(N)nc21 (single isomer, unassigned) [m^7′-OGpSpppG D1, m^7,2′-OGpSpppG D1]; 1.64
Cn1c[n+]([C@@H]2O[C@H](COP(=O)(O)OP(=O)([O-])O)[C@@H](O)[C@H]2O)c2nc(N)[nH]c(=O)c21 [m^7GDP]; 1.16
C[n+]1cn([C@@H]2O[C@H](COP(=O)([O-])OP(O)(=S)OP(=O)(O)OC[C@H]3O[C@@H](n4cnc5c(=O)[nH]c(N)nc54)[C@H](O)[C@@H]3O)[C@@H](O)[C@H]2O)c2nc(N)[nH]c(=O)c21 (single isomer, unassigned) [m^7GppSpG D2]; 1.15
Cn1c[n+]([C@@H]2O[C@H](COP(=O)(O)OP(=O)([O-])OP(=O)(O)OC[C@H]3O[C@@H](n4cnc5c(=O)[nH]c(N)nc54)[C@H](O)[C@@H]3O)[C@@H](O)[C@H]2O)c2nc(N)[nH]c(=O)c21 [m^7GpppG]; 1.12

====

# EXPERIMENTAL TARGET: eIF4E (Mus musculus)
# Construct: Murine eIF4E (residues 28–217) was expressed in E. coli; made in house; host or cells: E. coli
# PROTOCOL TEXT: FA competition (probe-displacement) assay for eIF4E
# Format: binding, Murine
# EXPERIMENTAL SETUP: Probe 1e: footnote c, 1 nM probe 1c and 100 nM eIF4E; HEPES pH 7.2
PARAMETER: EC50 (nM)

CO[C@@H]1[C@H](O)[C@@H](COP([O-])(=S)OP(=O)(O)OP(=O)(O)OP(=O)(O)OC[C@H]2O[C@@H](n3cnc4c(=O)[nH]c(N)nc43)[C@H](O)[C@@H]2O)O[C@H]1n1c[n+](C)c2c(=O)[nH]c(N)nc21 (single isomer, unassigned) [m^7′-OGpSpppG D1, m^7,2′-OGpSpppG D1]; 51.4
Cn1c[n+]([C@@H]2O[C@H](COP(=O)(O)OP(=O)([O-])OP(=O)(O)OC[C@H]3O[C@@H](n4cnc5c(=O)[nH]c(N)nc54)[C@H](O)[C@@H]3O)[C@@H](O)[C@H]2O)c2nc(N)[nH]c(=O)c21; 551
Cn1c[n+]([C@@H]2O[C@H](COP(=O)(O)OP(=O)([O-])O)[C@@H](O)[C@H]2O)c2nc(N)[nH]c(=O)c21; 216
CO[C@@H]1[C@H](O)[C@@H](COP([O-])(=S)OP(=O)(O)OP(=O)(O)OP(=O)(O)OC[C@H]2O[C@@H](n3cnc4c(=O)[nH]c(N)nc43)[C@H](O)[C@@H]2O)O[C@H]1n1c[n+](C)c2c(=O)[nH]c(N)nc21 (single isomer, unassigned) [m^7′-OGpSpppG D2, m^7,2′-OGpSpppG D2]; 64.3

a. C[n+]1cn([C@@H]2O[C@H](COP(=O)([O-])OP(O)(=S)OP(=O)(O)OC[C@H]3O[C@@H](n4cnc5c(=O)[nH]c(N)nc54)[C@H](O)[C@@H]3O)[C@@H](O)[C@H]2O)c2nc(N)[nH]c(=O)c21 (single isomer, unassigned) [m^7GppSpG D1]
b. C[n+]1cn([C@@H]2O[C@H](COP(=O)([O-])OP(O)(=S)OP(=O)(O)OC[C@H]3O[C@@H](n4cnc5c(=O)[nH]c(N)nc54)[C@H](O)[C@@H]3O)[C@@H](O)[C@H]2O)c2nc(N)[nH]c(=O)c21 (single isomer, unassigned) [m^7GppSpG D2]
Challenge: Higher EC50 between a and b ? Pick one; state its label.
Response given: b
(b: 477 nM, a: 226 nM)
